# targetSystem: T1, FOLR1-mycHis (human, UniProt P15328 25-233)
# T1 construct: Secreted from CHO/DG44 cells, purified on Ni-NTA; Residues 1-233 include the native signal peptide; also called non-reducing FOLR1-mycHis; recombinant protein having myc and His tag at the C-terminus of FOLR1 (1-233 amino acids); not shown: myc and His tag at the C-terminus
# T1 sequence (P15328 25-233): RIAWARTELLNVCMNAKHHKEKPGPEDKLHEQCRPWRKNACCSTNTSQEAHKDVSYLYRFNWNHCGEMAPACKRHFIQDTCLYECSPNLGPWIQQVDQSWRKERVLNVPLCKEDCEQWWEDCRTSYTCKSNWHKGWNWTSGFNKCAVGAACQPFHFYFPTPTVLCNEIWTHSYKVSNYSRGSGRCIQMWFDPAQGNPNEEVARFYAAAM
# assayExplanation: SPR as in Example 29, antibody captured, FOLR1-mycHis as analyte
readoutType: affinity as percent of the affinity of ChRA15-7Acc antibody

1. HV7LV3-CDRH3-Cys101 modified antibody C101I (antibody, human IgG1, V domains shown, Human IgG1 kappa constant regions of pKANTEX93; transiently made in FUT8 double-knockout CHO-K1 cells; also called antibody in which Cys101 was modified with Ile) VH: EVQLVESGGGLVQPGGSLRLSCAASGFTFTDFYMNWVRQPPGKAPEWLGFIRNKANGYTTEFNPSVKGRFTISRDNSKNSLYLQMNSLKTEDTATYYCARILYGYAYYYVMDAWGQGTLVTVSS VL: DIQMTQSPSSLSASLGDRVTITCRTSEDIFRNLAWYQQKPGKAPKLLIYDTNRLADGVPSRFSGSGSGTDYTLTISSLQPEDFATYFCQQYDNYPLTFGQGTKLEIK | 73%
2. HV7LV3-CDRH3-Cys101 modified antibody C101Q (antibody, human IgG1, V domains shown, Human IgG1 kappa constant regions of pKANTEX93; transiently made in FUT8 double-knockout CHO-K1 cells; also called antibody in which Cys101 was modified with Gln) VH: EVQLVESGGGLVQPGGSLRLSCAASGFTFTDFYMNWVRQPPGKAPEWLGFIRNKANGYTTEFNPSVKGRFTISRDNSKNSLYLQMNSLKTEDTATYYCARQLYGYAYYYVMDAWGQGTLVTVSS VL: DIQMTQSPSSLSASLGDRVTITCRTSEDIFRNLAWYQQKPGKAPKLLIYDTNRLADGVPSRFSGSGSGTDYTLTISSLQPEDFATYFCQQYDNYPLTFGQGTKLEIK | 64%
